System: MS2 coat protein
Assay: apparent KD of MS2 coat protein; designed switch direction (-1 OFF switch, 1 ON switch): 1; higher = weaker reporter binding
Details: input ligand: FMN 200 uM
Give 1 when the value for apparent KD of MS2 coat protein is at least 0.3 µM. Give 0 when it is less.

1. CUGAGCGAUCAAGGAUAUCACGUCGUUUAGACGUGAGAAGGUGAUAAUUACAUGAGGAUCACCCAUGUAUAACAUGAAGCUCAG [SSNG1/9-A3] (Eterna round: R96, puzzle: Same State NG 1): 0
2. UUAUCUCAGACAUGAGGAUCACCCAUGUUUUUUUGUCUUUGACAGGAUAUAGUUGUUUCGUUUUACUAGAAGGGUCAUUUUAUU [JR_SSNG3_Sub024] (Eterna round: R96, puzzle: Same State NG 3): 0
3. AAUCCUGUCACAGGAUAUCCAAGGUAAACCCUCGGAGAAGGGUGAUAGUCUAACAAACACACACAUGAGGAUCACCCAUGUUAA [Usxeus] (Eterna round: R96, puzzle: Same State NG 1): 0
4. AACAUGAGGAUCACCCAUGUCAGGUCGCCAACCUACAUGAGGAAGGAUAUAGCCUCGAAUAUUGGCUAGAAGGUCCUCAUGAAU [Tieson] (Eterna round: R96, puzzle: Same State NG 3): 1
5. UAAAUAAAGUAAGGAUAUACAUGAGGAUCUCUCGUAGAAGGUACUAUACAUGAGGAUCACCCAUGUGCCGGUCCGUAGACUGGA [Mat - Same State NG 1 - JL mod - D8] (Eterna round: R96, puzzle: Same State NG 1): 1
6. GAAAAGCAGAGAGGAUAUGUCACUCAUGCCGUGACACAUGAGGAUCACCCAUGUUCAAUCCGGCCGCAGAAGGCUCCGCGAAAA [Eternabot solution 25] (Eterna round: R96, puzzle: Same State NG 2): 0
7. AGAUCAUGACGAGGAUAUGCCACAUGAGGAUCACCCAUGUAUGUGGUAGGACGCGUACGUCCAAAGCAGAAGGCGUCGUGAUCA [Mat - Same State NG 2 - JL mod - D36] (Eterna round: R96, puzzle: Same State NG 2): 0
8. GGAGCCAAGGCAGGAUAUUCAUAUUAAUUACAUGAGGAUCACCCAUGUUAGGCCAGAAGGCCUUGGGAGAAGGGCCAUGGCUCG [Xeonanis - 13 mod19] (Eterna round: R96, puzzle: Same State NG 2): 0
9. AGUCCAGCCUGAGCUGGACAAAAGCAUGUACAUGAGGAUCACCCAUGUCAUGUACAAGCUUUUUGCUCGUCUUAAUA [JL zipper 49] (Eterna round: R96, puzzle: Sensor for hsa-mir-208a): 1
